Just for reference, PubChem BioAssay (NCI) is where these values come from.

growth: recorded values
# System: UO-31 renal
# testDetails: NCI-60 one-dose screen, 48 h (100 = growth as untreated, 0 = no growth, -100 = all killed)
# cond: 10 µM unless noted
Compounds without any hit were thinned out: in the full panel of roughly 83,000, 20% have a hit.
Report as a plain number; the unit % is understood.

Below are worked cases with known answers.
Ask: Endpoint output: growth of COc1ccc2[nH]c(O)c(/C=c3/ccc4c(c3)N=C(c3ccc(F)cc3)N=4)c2c1 . Value?
Result: 63.2

Ask: # iterate: Cc1cc(O)c(C2=NN(c3ccc(S(N)(=O)=O)cc3)C(c3ccc(Cl)cc3)C2)c(C)c1Cl (centres undefined)
Result: 66.6

Ask: Another compound to check: CC[C@H](Nc1nc(N)nc(C2CC2)c1C#N)c1nc2cccc(NCc3ccc(C(=O)NO)cc3)c2c(=O)n1-c1ccccc1
Result: -80

Others:
Ask: Request the reported growth associated with CCCc1n(Cc2ccc3ccccc3n2)cc[n+]1Cc1ccc2ccccc2c1
Result: 73.8

Ask: // repeat for COc1ccc(-n2nc(C(=O)NCC(=O)Nc3nc4cc(OC)ccc4s3)c3ccccc3c2=O)cc1 and report
Result: -0.0591

Ask: // query: CCCCN(CCCC)CCCN=c1nc2c(c(N)n1-c1ccccc1)c(=S)n(-c1ccccc1)c(=S)n2-c1ccccc1
Result: -80.9

Ask: Likewise for COc1ccc(Nc2ncnc3c2sc2nc(C)cc(C)c23)cc1 ?
Result: 91.5

Ask: Would you kindly repeat that for COc1ccc(C2CC(c3ccc(Nc4ccnc5cc(Cl)ccc45)cc3)=NN2c2ccccc2)cc1 (centres undefined) ?
Result: 93.9

Ask: Next: COc1cccc(OCC(O)CN2CCN(c3ccccc3)CC2)c1 (centres undefined)
Result: 96.3

---

# System: MOLT-4 leukemia
# testDetails: NCI-60 one-dose screen, 48 h
# cond: 10 µM unless noted
The panel holds about 83,000 compounds, 20% with a hit somewhere; the sample as a whole holds those more often. Active and inactive are the calls of the source. How the source made its calls: active means growth percent below 10; inactive means the rest.
Permitted responses: active, inactive

Ask: # fetch the recorded call for c1ccc(C(Nc2ccccn2)(c2ccccc2)c2ccccc2)cc1 here
Result: inactive

Ask: Next record, please: Cc1ccccc1CNc1ncnc2[nH]ncc12
Result: active

Ask: Then what about the molecule CCCc1n(Cc2ccc3ccccc3n2)cc[n+]1Cc1ccc2ccccc2c1 ?
Result: active

Ask: Same thing, different molecule: COc1cc(C)cc2oc3oc(=O)c(-c4csc(-c5cc6ccccc6oc5=O)n4)cc3c(=O)c12
Result: inactive

Ask: Also FC(F)(F)c1ccc(/C=N/Nc2nnc3n2N=C(c2ccc(Cl)cc2)CS3)cc1 ?
Result: inactive

Ask: Same read-out for O=[N+]([O-])c1ccccc1CN1CCCCC1 ?
Result: inactive

Others:
Ask: Please state the recorded outcome for this molecule: C=C(C)C1CCC2(C(=O)O)CCC3(C)C(CCC4C5(C)CCC(O)C(C)(C)C5CCC43C)C12 (stereo not given)
Result: inactive

Ask: Follow-up item: O=c1cc(N2CCOCC2)oc2c(-c3ccc4c(c3)OCCO4)csc12
Result: active

Ask: Please give the result for CC[C@H](Nc1nc(N)nc(N)c1Cl)c1nc2cccc(NCc3ccc(C(=O)NO)cc3)c2c(=O)n1-c1ccccc1 too.
Result: active

Ask: O=C(Nc1ccc2[nH]c3ccccc3c2c1)c1ccccc1Cl ?
Result: inactive

---

# Tested on: HCC-2998 colon
# testDetails: NCI-60 one-dose screen, 48 h
# cond: 10 µM unless noted
# Method: Growth inhibition of the HCC-2998 human tumor cell line is measured as a screen for anti-cancer activity. Cells are grown in 96 well plates and exposed to the test compound for 48 hours. Compounds are tested at a single concentration, which is 10^-5 M for most compounds. The reported endpoint is percent growth (GI% or GIPRCNT), where numbers from 0 - 100% represent growth inhibition, and numbers from -100% - 0 represent cell death. For example, a value of 40 represents 60% growth inhibition. […]
About 83,000 compounds went through this panel and 20% of them were active in at least one assay; those are over-represented in the sample as a whole. Active and inactive are the calls of the source. The calls were made as follows: active = growth percent below 10; inactive = the rest.
Thanks in advance; please answer with one of these: active, inactive

Ask: Can you look up the reported call for Cc1ccc2cc3c(NC(=O)c4cccnc4)nn(C)c3nc2c1 for me?
Result: inactive

Next, consider the following molecule.
Ask: What outcome does the record of this test show for CCOc1c(C#N)c2c(N)ncnc2n1C1OC(CO)C(O)C1O (stereo unspecified) ?
Result: inactive

---

# Test system: UO-31 renal
# testDetails: NCI-60 one-dose screen, 48 h
# cond: 10 µM unless noted
The panel holds about 83,000 compounds, 20% with a hit somewhere; the sample as a whole holds those more often. The source made the active and inactive calls. How the source made its calls: active means growth percent below 10; inactive means the rest.
// one of active, inactive, no free text

Ask: How was CCOc1ccc([C@@H]2[C@@H](Oc3ccccc3)C(=O)N2c2cc(OC)c(OC)c(OC)c2)cc1 classified in this test?
Result: inactive

Next:
Ask: Fill in: this test's call for NCCCOc1cc2ccccc2cc1C(=O)NCCCOc1cc2ccccc2cc1C(=O)Nc1ccc(Cl)cc1O is ___
Result: active

Ask: Item: CCCCC(CCc1ccccn1)C(=O)c1ccccc1 (stereo not given)
Result: inactive

Ask: Next record, please: Cc1cc(C)cc(NC(=O)Cn2nncc2CN2C(=O)CSC2=O)c1
Result: inactive

Ask: Another compound: COc1ccc(C(=O)/C=C/c2cn(-c3ccccc3)nc2-c2cccc(Nc3ccnc4cc(Cl)ccc34)c2)cc1
Result: inactive

Ask: Try the compound COc1cc(C2C=C(C)N=C3SC=NN32)cc(OC)c1OC (stereo not given)
Result: inactive

Ask: And for O=c1cc(-c2ccc3c(c2)OCCO3)oc2cc(Cl)ccc12 ?
Result: active

Ask: Note, next up: COc1cc(-c2csc(NC(=O)Nc3cccc(C(F)(F)F)c3)n2)cc(OC)c1OC
Result: inactive

Ask: Quick one: Oc1ccc(Nc2ncnc3c2sc2ncccc23)cc1
Result: active

Ask: Follow-up entry: Cc1ccc(N=CNN=C(N)N)cc1
Result: inactive

---

# Tested on: SF-268 CNS
# testDetails: NCI-60 one-dose screen, 48 h (100 = growth as untreated, 0 = no growth, -100 = all killed)
# cond: 10 µM unless noted
About 83,000 compounds went through this panel and 20% of them were active in at least one assay; those are over-represented in the sample as a whole.
measurementKind: growth (%)
# unit: % | format: bare number

Consider the following illustrative entries.
Ask: Tell me the measured growth of O=[N+]([O-])c1cccc(N=C(Nc2cccc([N+](=O)[O-])c2)c2ccccc2)c1 , please.
Result: 96.6

Ask: Follow-up item: COc1ccc2[nH]c(C(=O)OCc3ccc4c(Br)cc(Br)c(O)c4n3)cc2c1
Result: -70.8

Ask: What do you get for Cc1ccc(-c2nc3ccccc3c(=O)n2/N=C/c2cccc3ccccc23)cc1 ?
Result: 74.1

Ask: Ok, now C1=C\CCCCN2CC[C@H]3[C@H](CCCC/C=C\CCCN4C[C@@H](CCCCC/1)C[C@@H]3C4)C2
Result: 73.8

Kindly review the next compound as well.
Ask: Requested read-out: growth. Entry: COc1c(-c2cc(-c3ccc(C)o3)[nH]c(=O)n2)c(O)cc2occc12
Result: 69.8

---

# Test system: HOP-62 NSCLC
# testDetails: NCI-60 one-dose screen, 48 h (100 = growth as untreated, 0 = no growth, -100 = all killed)
# cond: 10 µM unless noted
The panel holds about 83,000 compounds, 20% with a hit somewhere; the sample as a whole holds those more often.
measurementKind: growth (%)
Return type: number; implicit unit %.

Some solved entries appear below for comparison.
Ask: If you can, please state the reported growth value of CCN(CC)c1ccc(C(=N)c2ccc(N(C)C)cc2)cc1 .
Result: 7.49

Ask: Quick one: O=[N+]([O-])c1cccc([I+]c2ccccc2)c1
Result: -26.8

Ask: Same question, COC(=O)CNS(=O)(=O)c1ccc2c(c1)Cc1cc(S(=O)(=O)NCC(=O)OC)ccc1-2 this time
Result: 97.8

Switching to the query record.
Ask: Form field: reported growth of CCCCCCCCCCC(C(O)c1ccccc1)N1CCCCC1 (configuration not stated)
Result: -75.3

---

# System: KM12 colon
# testDetails: NCI-60 one-dose screen, 48 h
# cond: 10 µM unless noted
This is part of a sample that, as a whole, favours compounds with a hit. Of some 83,000 tested, about 20% had one in any assay. Activity calls are given as the source filed them. The calls were made as follows: active = growth percent below 10; inactive = the rest.
Your response should consist of one outcome taken from True = active, False = inactive

Example entries begin here.
Ask: Outcome logged for Cc1ccc(O)c(Cc2ccccc2)c1 in this assay:
Result: False

Ask: Then COC(=O)C(CCC(=O)CCl)N1C(=O)c2ccccc2C1=O (configuration not stated) ?
Result: False

Ask: Request: ClCc1cccc(CSc2ncnc3c2ncn3Cc2cccc(CCl)c2)c1
Result: False

Ask: What about this compound? CCCc1n(Cc2ccc3ccccc3n2)cc[n+]1Cc1ccc2ccccc2c1
Result: True

Ask: Same lookup for CC1CN(CCCOC(=O)Nc2ccc(Cl)cc2)CCN1C(C)(C)C (configuration not stated) , please.
Result: False

Ask: Please do the same for COc1cc2c(cc1OC)C(=O)OC2 as well.
Result: False

Ask: Next entry: Cc1cc(Cl)c2ccc(N(C)C)cc2n1
Result: False

Ask: Likewise for Oc1[nH]c2ccccc2c1/C=c1/ccc2c(c1)N=C(c1ccc(C(F)(F)F)cc1)N=2 ?
Result: False

Ask: // query: COc1ccc2c(c1)CCCC21C(=O)Nc2c(Cl)cccc21 (configuration not stated)
Result: False

Ask: Check COc1cc2c(cc1OCCCOc1cc3c(cc1OC)C(=O)N1CCC[C@H]1C=N3)C=CC(C)(C)O2 too.
Result: False

Further cases:
Ask: Recorded test outcome, item COc1cc(C)c2c(=O)c3c(oc2c1)C(=O)c1c(O)c(OC)cc(O)c1C3=O
Result: False

Ask: Then what about the compound C#CC[C@@H]1C[C@]2(C)[C@H]3CC[C@@H]4[C@H]5C(C(=C)C)CC[C@]5(C(=O)NCCCCCCCCN)CC[C@@]4(C)[C@]3(C)CC[C@H]2C(C)(C)[C@H]1OC(C)=O (some centres not stated) ?
Result: False

Ask: // same read-out, input: Cc1ccc2nc(CN(CCN(Cc3nc4ccc(C)cc4[nH]3)Cc3nc4ccc(C)cc4[nH]3)Cc3nc4ccc(C)cc4[nH]3)[nH]c2c1
Result: True

Ask: Continue with COc1ccc(C2CC(c3ccc(Nc4ccnc5cc(Cl)ccc45)cc3)=NN2c2ccccc2)cc1 (configuration not stated)
Result: False

Ask: // same read-out, input: CCN(CC)c1ccc2nc3c4ccccc4c(=O)cc-3n(-c3ccccc3)c2c1
Result: True

Ask: Then COc1ccc(-c2n[nH]nc2-c2cc(OC)c3c(c2)OCO3)cc1 ?
Result: True
